molecular target: cGMP-inhibited 3',5'-cyclic phosphodiesterase 3A (Homo sapiens) (UniProt Q14432); assay: SafetyScreen: PDE3A Human Phosphodiesterase Enzymatic LeadHunter Assay, catalogue number: 4072; format: functional; conditions: Test compound concentration 10.0 uM
Sequence (Q14432 whole entry): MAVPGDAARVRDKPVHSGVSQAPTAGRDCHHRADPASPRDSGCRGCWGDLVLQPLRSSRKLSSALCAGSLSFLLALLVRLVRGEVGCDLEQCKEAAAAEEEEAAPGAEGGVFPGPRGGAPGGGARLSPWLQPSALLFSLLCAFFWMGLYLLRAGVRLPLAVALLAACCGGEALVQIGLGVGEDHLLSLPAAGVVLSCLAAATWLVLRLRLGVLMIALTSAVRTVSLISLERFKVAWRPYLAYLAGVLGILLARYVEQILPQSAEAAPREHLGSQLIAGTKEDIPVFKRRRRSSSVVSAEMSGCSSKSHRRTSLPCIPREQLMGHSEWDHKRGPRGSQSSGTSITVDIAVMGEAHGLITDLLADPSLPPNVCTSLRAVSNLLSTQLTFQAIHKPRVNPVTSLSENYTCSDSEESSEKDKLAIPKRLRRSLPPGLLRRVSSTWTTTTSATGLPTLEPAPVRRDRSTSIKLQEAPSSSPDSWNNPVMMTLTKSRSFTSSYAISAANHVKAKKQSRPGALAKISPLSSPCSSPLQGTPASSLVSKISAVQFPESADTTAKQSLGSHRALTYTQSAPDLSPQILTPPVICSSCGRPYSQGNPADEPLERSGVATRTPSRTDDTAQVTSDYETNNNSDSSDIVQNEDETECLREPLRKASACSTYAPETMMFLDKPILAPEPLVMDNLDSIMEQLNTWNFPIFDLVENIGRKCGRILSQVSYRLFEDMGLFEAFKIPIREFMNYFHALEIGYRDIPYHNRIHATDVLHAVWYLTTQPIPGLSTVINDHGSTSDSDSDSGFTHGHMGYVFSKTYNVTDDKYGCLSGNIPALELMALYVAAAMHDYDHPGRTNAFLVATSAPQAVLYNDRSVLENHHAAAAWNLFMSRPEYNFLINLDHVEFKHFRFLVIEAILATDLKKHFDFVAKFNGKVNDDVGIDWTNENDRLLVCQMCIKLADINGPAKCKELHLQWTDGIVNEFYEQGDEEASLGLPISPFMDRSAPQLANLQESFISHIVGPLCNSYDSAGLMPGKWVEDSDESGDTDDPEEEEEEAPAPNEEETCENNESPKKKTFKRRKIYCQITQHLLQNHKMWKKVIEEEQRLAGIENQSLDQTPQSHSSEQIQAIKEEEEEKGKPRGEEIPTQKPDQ
Would you mind telling me the reported inhibition of each entry?
Use % as the unit, but write only the number.

Request: Which inhibition value belongs to `Cc1nn(C)cc1-c1cc2c(N[C@H](c3ccc4c(c3)S(=O)(=O)CCC4)C(C)C)ncnc2[nH]1` ?
Response: 46

Request: Which inhibition value belongs to `CC(C)[C@H](Nc1ncnc2[nH]ccc12)c1ccc2c(c1)S(=O)(=O)CCC2` ?
Response: 29

Request: Which inhibition value belongs to `CNC(=O)Cn1cc(-c2cc3c(N[C@@H](c4ccc5c(c4)S(=O)(=O)CCC5)C(C)C)ncnc3[nH]2)cn1` ?
Response: -9

Request: Which inhibition value belongs to `CC(C)[C@H](Nc1ncnc2[nH]c(-c3cnn(C)c3C#N)cc12)c1ccc2c(n1)OCCO2` ?
Response: 37

Request: Which inhibition value belongs to `Cn1ncc(-c2cc3c(N[C@@H](c4ccc5c(n4)OCCO5)C(C)(C)C)ncnc3[nH]2)c1C#N` ?
Response: 37
